# target_entity: OsSMF1 (Oryza sativa, UniProt Q6ZLB0 1-436)
# Sequence: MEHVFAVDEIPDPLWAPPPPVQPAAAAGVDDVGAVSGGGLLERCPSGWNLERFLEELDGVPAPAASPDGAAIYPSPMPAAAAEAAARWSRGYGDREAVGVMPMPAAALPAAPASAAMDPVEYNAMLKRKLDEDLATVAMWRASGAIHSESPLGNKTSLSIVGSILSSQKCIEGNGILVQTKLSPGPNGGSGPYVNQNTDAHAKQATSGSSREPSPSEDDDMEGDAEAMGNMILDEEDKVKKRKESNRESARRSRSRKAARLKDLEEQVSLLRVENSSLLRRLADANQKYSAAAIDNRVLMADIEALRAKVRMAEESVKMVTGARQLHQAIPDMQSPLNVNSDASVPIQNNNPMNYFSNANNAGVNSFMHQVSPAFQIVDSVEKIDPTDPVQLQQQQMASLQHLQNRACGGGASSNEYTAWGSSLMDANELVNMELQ
# protocol: protein-binding microarray (RPBM); PBS, 2% BSA, 51.3 ng/ul salmon testes DNA, 50 uM zinc acetate, 200 nM TF, 25 C, 1 h; high values mean tight binding
# condition_info: protein: recombinant; tags: N-terminal polyhistidine and DsRed monomer fusion (pET32a); chain copies: 2; label: CyDye5-dUTP incorporated in the synthesized complementary strand; 3' TTTTT single-stranded linker to array surface; dsDNA, one strand shown
The full ranking holds about 39,000 sequences; the median of “fluorescence intensity (a.u.)” is about 4,300, and the highest 2% start at about 39,000. Shown is part of a subset that was picked to be rich in the highest values.
binding signal listing for selected sequences.

Solved cases (3 shown):
CGGGAGAGAAGCCCACGTCACTCCCATAAATGGATGTGGACGGAGTCACCTAGTGCAG: 9320 fluorescence intensity (a.u.)
CCCCTCCCCATCGTCAGCATCTTTCTTTCTCTTCCCATCCCGGAGTCACCTAGTGCAG: 6610 fluorescence intensity (a.u.)
GTTCCACATGTCATCCTCTCCCTTTCTTCTTCCTCCCCTCCGGAGTCACCTAGTGCAG: 3930 fluorescence intensity (a.u.)

Please supply the value of reported binding signal for the item `CCACGTGTCAGCATTGCCACATCAGCTTCCTCTCTCTTTTCGGAGTCACCTAGTGCAG`
24100 fluorescence intensity (a.u.)

Please supply the value of reported binding signal for the item `CATGTCAGGACGCCACGTCATCATGCTCTCTCTTTCCCCTCGGAGTCACCTAGTGCAG`
33600 fluorescence intensity (a.u.)

Please supply the value of reported binding signal for the item `GTCAGTGTGGCCACGTCAGCATCCTCTCTTTTCCTCTCTTCGGAGTCACCTAGTGCAG`
40800 fluorescence intensity (a.u.)

* * *

# target_entity: OsSMF1 (Oryza sativa, UniProt Q6ZLB0 1-436)
# Sequence: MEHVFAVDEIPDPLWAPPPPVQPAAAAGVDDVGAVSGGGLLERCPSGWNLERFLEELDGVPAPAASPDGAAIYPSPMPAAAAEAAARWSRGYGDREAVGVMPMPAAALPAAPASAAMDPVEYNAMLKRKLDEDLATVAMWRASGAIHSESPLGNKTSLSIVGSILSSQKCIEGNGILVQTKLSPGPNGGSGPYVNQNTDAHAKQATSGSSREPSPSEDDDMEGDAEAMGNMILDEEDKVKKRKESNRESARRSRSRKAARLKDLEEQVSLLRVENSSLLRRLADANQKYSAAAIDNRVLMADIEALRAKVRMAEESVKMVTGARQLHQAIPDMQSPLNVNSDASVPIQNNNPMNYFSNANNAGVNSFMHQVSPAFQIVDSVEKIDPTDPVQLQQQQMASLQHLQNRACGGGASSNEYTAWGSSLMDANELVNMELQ
# protocol: protein-binding microarray (RPBM); PBS, 2% BSA, 51.3 ng/ul salmon testes DNA, 50 uM zinc acetate, 200 nM TF, 25 C, 1 h; high values mean tight binding
# condition_info: protein: recombinant; tags: N-terminal polyhistidine and DsRed monomer fusion (pET32a); chain copies: 2; label: CyDye5-dUTP incorporated in the synthesized complementary strand; 3' TTTTT single-stranded linker to array surface; dsDNA, one strand shown
In all, about 39,000 sequences were measured (“fluorescence intensity (a.u.)”: median about 4,300, highest 2% from about 39,000 on). Shown is part of a subset that was picked to be rich in the highest values.
binding signal listing for selected sequences.

Solved cases (3 shown):
AATGCTAAGGGACAACGTCAGCGGGTTAGTGCAAGGTAAGCGGAGTCACCTAGTGCAG: 6630 fluorescence intensity (a.u.)
CCTAGCCCTCCTCCTACTCCTCTGCAATGGTAGATTGCGCCGGAGTCACCTAGTGCAG: 47700 fluorescence intensity (a.u.)
CTCTCTTCCTCTCTCTCTCCTCCGCGTAGGATTTAGCCTGCGGAGTCACCTAGTGCAG: 3880 fluorescence intensity (a.u.)

Moving on to the next sequence.
Please supply the value of reported binding signal for the item `AAAATTCGAATCAGGCGGAGCCACCTCACCTCGCCGCGGCCGGAGTCACCTAGTGCAG`
5020 fluorescence intensity (a.u.)

* * *

binding signal listing for selected sequences.
# target_entity: OsSMF1 (Oryza sativa, UniProt Q6ZLB0 1-436)
# Sequence: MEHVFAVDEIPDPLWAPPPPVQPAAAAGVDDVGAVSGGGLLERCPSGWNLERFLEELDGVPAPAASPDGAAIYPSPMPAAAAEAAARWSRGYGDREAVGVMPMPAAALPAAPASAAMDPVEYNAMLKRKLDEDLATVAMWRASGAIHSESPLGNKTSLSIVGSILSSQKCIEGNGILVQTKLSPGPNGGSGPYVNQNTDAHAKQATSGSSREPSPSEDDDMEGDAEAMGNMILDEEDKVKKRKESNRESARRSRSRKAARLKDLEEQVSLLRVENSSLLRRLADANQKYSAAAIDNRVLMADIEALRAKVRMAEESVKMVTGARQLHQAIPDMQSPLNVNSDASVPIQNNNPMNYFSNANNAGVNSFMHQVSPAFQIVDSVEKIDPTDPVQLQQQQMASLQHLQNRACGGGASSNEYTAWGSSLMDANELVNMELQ
# protocol: protein-binding microarray (RPBM); PBS, 2% BSA, 51.3 ng/ul salmon testes DNA, 50 uM zinc acetate, 200 nM TF, 25 C, 1 h; high values mean tight binding
# condition_info: protein: recombinant; tags: N-terminal polyhistidine and DsRed monomer fusion (pET32a); chain copies: 2; label: CyDye5-dUTP incorporated in the synthesized complementary strand; 3' TTTTT single-stranded linker to array surface; dsDNA, one strand shown
Whole data set: some 39,000 sequences, median “fluorescence intensity (a.u.)” near 4,300, cut for the highest 2% near 39,000. The sample holds the highest values, similar sequences and a random draw of the others, so the mix is not that of the screen.

TCCCCACATCACCCAACACGAGCTCACCACCACCACCACCCGGAGTCACCTAGTGCAG: 3500 fluorescence intensity (a.u.)
CTCCAGCAGCTGCTCGCTCGTCATCACCGCGATGCTGCCGCGGAGTCACCTAGTGCAG: 3490 fluorescence intensity (a.u.)
TTACTAGTACATTTAATATATTTATTTAATGTATTTGTATCGGAGTCACCTAGTGCAG: 3140 fluorescence intensity (a.u.)

Please supply the value of reported binding signal for the item `TTCATCCTCGGCCACTCCTACGTCAAGGCCAAGAGCGGCTCGGAGTCACCTAGTGCAG`
3600 fluorescence intensity (a.u.)

Please supply the value of reported binding signal for the item `AATCTACTTCCTCCGTTTTATGTTATAAGACTTTCTAGCACGGAGTCACCTAGTGCAG`
3140 fluorescence intensity (a.u.)

Please supply the value of reported binding signal for the item `AAGTAAATGTAGATAAGGCCGTGTAATAAAGGTTGCTAGTCGGAGTCACCTAGTGCAG`
56800 fluorescence intensity (a.u.)

Please supply the value of reported binding signal for the item `TTACTGGTGATATTTATTTTGACAAGTGCTTTTATTTGTACGGAGTCACCTAGTGCAG`
3930 fluorescence intensity (a.u.)

Please supply the value of reported binding signal for the item `GGCTAGCCAGCGACCGACCGGCGGCCACCGTGGCGGGATTCGGAGTCACCTAGTGCAG`
4850 fluorescence intensity (a.u.)

Please supply the value of reported binding signal for the item `GCCGCCGCTCCCTCCCAATGACCCGCCGGATCTCCTAGTGCGGAGTCACCTAGTGCAG`
3160 fluorescence intensity (a.u.)

Please supply the value of reported binding signal for the item `TCAAGGACCTCGTCATCCTCTCAGGTAACACACTTTCCCTCGGAGTCACCTAGTGCAG`
3780 fluorescence intensity (a.u.)

Please supply the value of reported binding signal for the item `CATACATGGAAAAGACAAATCGCCTGGTGCATGAGGCGCTCGGAGTCACCTAGTGCAG`
40600 fluorescence intensity (a.u.)

Please supply the value of reported binding signal for the item `CTGCGTTACTTCGACATTGCCCGACGTGTTGACTGTGTTGCGGAGTCACCTAGTGCAG`
4070 fluorescence intensity (a.u.)

Please supply the value of reported binding signal for the item `TATACACCACGTTTGCTGGCTTGGCTTCCTTCCACACTCCCGGAGTCACCTAGTGCAG`
4000 fluorescence intensity (a.u.)

Please supply the value of reported binding signal for the item `GCCCAGCGTGCACGGCGCGACGGACTCGCGCGGCACTAGCCGGAGTCACCTAGTGCAG`
5790 fluorescence intensity (a.u.)

Please supply the value of reported binding signal for the item `TTACAGGTGTTGTCATTTTATGTGACCGGTCAGACCGGGCCGGAGTCACCTAGTGCAG`
4510 fluorescence intensity (a.u.)

Please supply the value of reported binding signal for the item `GGCCAGCCGTGTAGGCGGAGGCACCACTCGGCGGCGACGGCGGAGTCACCTAGTGCAG`
49900 fluorescence intensity (a.u.)

Please supply the value of reported binding signal for the item `GAAAATAAGGGAGTTTTCTGCAAAATTTGATGAATGGAAGCGGAGTCACCTAGTGCAG`
3230 fluorescence intensity (a.u.)

Please supply the value of reported binding signal for the item `TCTTTTGGTTTACAACACTTTGTATGCTAGCATTATTTTGCGGAGTCACCTAGTGCAG`
3420 fluorescence intensity (a.u.)

The reported numbers originate from paper PMC7819943.
